// data source = ChEMBL document CHEMBL5058577

Parameter Population Hoechst High Intensity Objects (%): see the listing below.
tested on: U2OS; assay: Multiplex assay against U2OS; format: toxicity, cell-based; settings: human, 24 h, 1 µM, compound concentration 1 uM, replicate 1
Give just the numeric value; % need not be written.

- c1cc(OCCCN2CCCCC2)ccc1CN1CCCCC1: 1
- CC(C)(C)c1ccc(S(=O)(=O)Nc2ccc(Cl)cc2C(=O)c2cc[n+]([O-])cc2)cc1: 1
- Cc1ccc(C(C)(O)c2nc3ccccc3s2)c(C)c1 (stereo not drawn): 1

Lookup result for N#Cc1c(N)nc(SCc2csc(-c3ccc(Cl)cc3)n2)c(C#N)c1-c1ccc(OCCO)cc1 ; measured Population Hoechst High Intensity Objects (%): 3

Reported Population Hoechst High Intensity Objects (%) for Cc1ccc(/C(=C\CN2CCCC2)c2ccccn2)cc1 was 1

response.value for Cc1ccc(F)cc1C(=O)Nc1ccc(C(=O)N2Cc3cccn3Cc3ccccc32)c(Cl)c1 (field: Population Hoechst High Intensity Objects (%)) = 1

Record CC1(COc2ccc3c(c2)ncn3-c2ccc3cccc(N4CCC(N)CC4)c3n2)COC1 , field Population Hoechst High Intensity Objects (%): 9

Notebook: O=C(NCC(=O)N1CC[C@H](N[C@H]2CC[C@@](O)(c3ccc(-c4ncccn4)cn3)CC2)C1)c1cccc(C(F)(F)F)c1 , Population Hoechst High Intensity Objects (%) read as 1
